We begin with pIC50 values for Receptor-type tyrosine-protein kinase FLT3 (Homo sapiens, UniProt P36888), as collected from the published literature.
pIC50: −log10 of the molar value.

{"columns": ["molecule", "readout-qualifier", "pIC50"],
 "data": [
  ["Cc1ccc2nc(Nc3cnn(C4CCN(C)CC4)c3)nc(OC3(C)CC3)c2n1", "=", 7.80],
  ["CC(C)(O)[C@H]1CC[C@H](Nc2ccn3ncc(-c4cccc(Cl)c4)c3n2)CC1", "=", 6.90],
  ["CC1(COc2ccc(Nc3ncc(C(F)(F)F)c(NCC4CCNCC4)n3)cc2)COC1", "=", 7.49],
  ["COc1cccc(NC(=O)Cn2cc(Oc3ncnc4cc(OCCN5CCCC5)c(OC)cc34)cn2)c1", "=", 8.30],
  ["COc1ccc2c(c1)[C@]1(C[C@H]1c1ccc3c(-c4ccc(N5CCN(C)CC5)cc4)n[nH]c3c1)C(=O)N2", "=", 7.35],
  ["COc1cccc(NC(=O)Cn2cc(Oc3ncnc4cc(OC)cc(OC)c34)cn2)c1", "=", 8.30],
  ["COc1cc2c(Oc3ccc(NC(=O)c4nn(-c5ccccc5C(F)(F)F)c5ccccc5c4=O)cc3F)ccnc2cc1OCCCN1CCCC1", "=", 8.07],
  ["COc1ccccc1NC(=O)c1cnn2ccc(N[C@@H]3CCCNC3)nc12", "=", 7.42],
  ["O=C(Nc1ccc(CN2CCNCC2)cc1)c1n[nH]cc1Nc1ncnc2[nH]ccc12", "=", 8.99],
  ["CCN(CC)Cc1ccc(NC(=O)c2n[nH]cc2Nc2ncnc3sccc23)cc1", "=", 8.27],
  ["O=C1c2oc(-c3ccc(Cl)cc3)cc2Cc2cc(N3CCNCC3)ccc2N1Cc1ccccc1-c1cccnc1", "<", 4.52],
  ["NC(=O)c1c(NC(=O)COc2ccccc2)sc2c1CCCC2", "<", 5.00],
  ["O=C(c1cccc(-n2cccn2)c1)N1N=C(c2cccnc2)CC1c1ccccc1O (centres undefined)", "<", 5.00],
  ["Cc1nc(NCCCN2CCOCC2)cc(Nc2cc(-c3cccc(NS(=O)(=O)c4ccccc4)c3)n[nH]2)n1", "=", 8.00],
  ["CN1CCN(Cc2ccc(NC(=O)c3n[nH]cc3Nc3ccnc4ccc(Br)cc34)cc2)CC1", "=", 8.32],
  ["O=C1Nc2ccccc2/C1=C\\c1ccc2c(/C=C/c3ccncc3)n[nH]c2c1", "=", 7.46],
  ["Fc1ccc(-n2cc(-c3ccccn3)nn2)cc1", "=", 5.17],
  ["NS(=O)(=O)c1ccc(NC(=O)N2CCN(c3ccnc(Nc4ccc(N5CCOCC5)cc4)n3)CC2)cc1", "=", 7.52],
  ["CNc1ncc2c(-c3ccc(N4CCN(C(=O)C(C)(C)C)CC4)nc3)nn(CC3CCCC3)c2n1", "=", 6.52]
]}
